Attribute: IC50
# testedOn: UniProtKB P01375
# protocolNotes: TNF-α Induced HEK Blue Cellular Assay
# testConditions: HEK Blue TNFα reporter cells, TNF-α 100 pg/ml, 24 hrs at 37° C., secreted alkaline phosphatase (QUANTI-Blue, 620 nm)

Recorded IC50, per entry:
molecule | testedOn | IC50
Cc1nc2cc(F)c(-c3ccc(P(C)(C)=O)nc3)cc2c(N[C@H](C)c2cc(C#N)ccc2F)c1Cl | UniProtKB P01375 | ≤ 0.1 µM
Cc1nc2cc(F)c(-c3ccc(P(C)(C)=O)nc3)nc2c(N[C@@H](C)c2cc(F)ccc2F)c1Cl | UniProtKB P01375 | ≤ 0.1 µM

Given the entry "Cc1nc2cc(F)c(-c3cnc(P(C)(C)=O)nc3)nc2c(N[C@H](C)c2ccccc2F)c1Cl" , report its measured IC50.
≤ 1 µM

Query: IC50; subject: "CC[C@@H](Nc1c(Cl)c(C)nc2cc(F)c(-c3ccc(P(C)(C)=O)nc3)c(F)c12)c1ncccc1F"
≤ 1 µM

Look at this molecule and give its reported IC50. "Cc1nc2cc(F)c(-c3ccc(P(C)(C)=O)nc3)nc2c(N[C@H](C)c2cccc(F)c2F)c1Cl"
≤ 0.1 µM

Consider the molecule shown here: "Cc1nc2cc(F)c(-c3ccc(P(C)(C)=O)nc3)nc2c(N[C@H](C)c2cc(F)cc(F)c2)c1Cl" What is its recorded IC50?
≤ 1 µM

----------
# testedOn: TNF-α (Homo sapiens, UniProt P01375)
# Sequence (P01375 77-233 limits assumed): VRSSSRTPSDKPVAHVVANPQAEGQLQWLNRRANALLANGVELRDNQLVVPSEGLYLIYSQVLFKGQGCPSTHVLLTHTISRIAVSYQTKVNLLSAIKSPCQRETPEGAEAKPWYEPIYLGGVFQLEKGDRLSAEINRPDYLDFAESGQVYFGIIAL
# protocolNotes: TNF-α Induced HEK Blue Cellular Assay
# testConditions: HEK Blue TNFα reporter cells, TNF-α 100 pg/ml, 24 hrs at 37° C., secreted alkaline phosphatase (QUANTI-Blue, 620 nm)
observationType: IC50

Example entries and their recorded answers appear below.
compound | testedOn | IC50
Cc1nc2ccc(-c3ccc(P(C)(C)=O)nc3)nc2c(N[C@H](C)c2cc(C#N)ccc2F)c1Cl | TNF-α (Homo sapiens, UniProt P01375) | ≤ 100 nM
CC[C@@H](Nc1c(Cl)c(C)nc2cc(F)c(-c3ccc(OCP(C)(C)=O)nc3)nc12)c1ncccc1F | TNF-α (Homo sapiens, UniProt P01375) | ≤ 1000 nM
Cc1nc2cc(F)c(-c3ccc(P(C)(C)=O)nc3)nc2c(N[C@H](C)c2cc(C#N)ccc2F)c1C | TNF-α (Homo sapiens, UniProt P01375) | ≤ 1000 nM
Cc1nc2cc(F)c(-c3ccc(P(C)(C)=O)nc3)nc2c(N[C@H](C)c2c(F)cccc2F)c1Cl | TNF-α (Homo sapiens, UniProt P01375) | ≤ 1000 nM
Cc1nc2cc(F)c(-c3ccc(P(C)(C)=O)nc3)nc2c(N[C@@H](CO)c2ccccc2F)c1Cl | TNF-α (Homo sapiens, UniProt P01375) | 10000 to 30000 nM
Cc1nc2cc(F)c(-c3cnc(P(C)(C)=O)nc3)nc2c(N[C@H](C)c2cc(C#N)ccc2F)c1Cl | TNF-α (Homo sapiens, UniProt P01375) | ≤ 100 nM
CC[C@@H](Nc1c(Cl)c(C)nc2cc(F)c(-c3ccc(P(C)(C)=O)nc3)nc12)c1ccccn1 | TNF-α (Homo sapiens, UniProt P01375) | ≤ 1000 nM
Cc1nc2cc(F)c(-c3ccc(P(C)(C)=O)nc3)nc2c(N[C@@H](c2ccccc2F)C(F)F)c1Cl (single isomer, unassigned) | TNF-α (Homo sapiens, UniProt P01375) | ≤ 100 nM

Given the compound "Cc1nc2cc(F)c(-c3cnc(P(C)(C)=O)c(F)c3)nc2c(N[C@H](C)c2cc(C#N)ccc2F)c1Cl" , what is its reported IC50?
≤ 100 nM

Using the record for "CC[C@H](Nc1c(Cl)c(C)nc2cc(F)c(-c3cnc(P(C)(C)=O)nc3)nc12)c1ncccc1F" , report its IC50.
≤ 1000 nM

Fill blank: measured IC50 of the compound "Cc1nc2ccc(-c3cnc(P(C)(C)=O)nc3)cc2c(N[C@H](C)c2cc(C#N)ccc2F)c1Cl" is ____.
≤ 1000 nM

Give the measured IC50 of "Cc1nc2cc(F)c(-c3ccc(OCP(C)(C)=O)nc3)cc2c(N[C@H](C)c2ccccc2F)c1Cl" .
≤ 1000 nM
